The reported measurements were obtained from patent US10398142B2.

- Test system: CA-MRSA (USA300-0114)
- Experiment Description: Minimum inhibitory concentration (MIC), broth microdilution
- Assay type: cell-based, Staphylococcus aureus
- Run Conditions: Table 4; USA300-0114; read-out: MIC CA-MRSA
Quantity Name: MIC (µM)
Report the figure in µM without appending any unit label.

CA-MRSA (USA300-0114) assay, molecule CCCCCCCCCCCC[N+](C)(C)CCC[N+](C)(CCC[N+](C)(C)CCCCCCCCCCCC)Cc1ccccc1.[Br-].[Br-].[Br-] , recorded MIC = 1

# lookup: CCCCCCCCCCCC[N+](C)(C)CCN(C)CC[N+](C)(C)CCCCCCCCCCCC.[Br-].[Br-] on CA-MRSA (USA300-0114), MIC = 1

The observed MIC for C=CC[N+](C)(CC[N+](C)(C)CCCCCCCCCCCC)CC[N+](C)(C)CCCCCCCCCCCC.[Br-].[Br-].[Br-] when tested with CA-MRSA (USA300-0114) stands at 1

Noted MIC for CCCCCCCCCCCC[N+](C)(C)CCC[N+](C)(CC)CCC[N+](C)(C)CCCCCCCCCCCC.[Br-].[Br-].[Br-] , tested on CA-MRSA (USA300-0114): 0.5

Sample CCCCCCCCCC[N+](C)(C)CCCCCCCCCC.[Cl-] [10,10, reference compound] , system: CA-MRSA (USA300-0114). Its MIC is 4

Response field MIC (CA-MRSA (USA300-0114)) for item CCCCCCCCCCCC[N+](C)(C)CCCCC[N+](C)(C)CCCCCCCCCCCC.[Br-].[Br-] : 1

Test item CCCCCCCCCCCCCCCC[n+]1ccccc1.[Cl-] [Pyr,16, reference compound] ; CA-MRSA (USA300-0114); reported MIC was 16
